Experiment: Standard protocol for determination of kcat and KM (continuous spectrophotometric assay, Acetyl CoA hydrolysis at 235 nm)
Assay type: biochemical
Conditions: purified protein; about 23° C.; 20 mM HEPES pH 6.8, 10% ethylene glycol, 0.2 mM acetyl CoA
Kcat values by entry

>  <MOLECULE>
SEQ ID NO: 420: GAT polypeptide (protein, 7_9C9, GAT polypeptide) MIEVKPINAEDTYEIRHRILRPNQPLEACMYETDLLGGTFHLGGYYRGKLISIASFHQAEHPELEGQKQYQLRGMATLEGYREQKAGSTLIRHAEELLRKKGADLLWCNARTSASGYYKKLGFSEQGEVYDIPPIGPHILMYKKLT

>  <Kcat (s⁻¹)>
1.08

$$$$
>  <MOLECULE>
SEQ ID NO: 285: GAT polypeptide (protein, 11H3, GAT polypeptide) MIEVKPINAEDTYEIRHRILRPNQPLEACMYETDLLGGAFHLGGYYQGKLISIASFHKAEHSELEGQKQYQLRGMATLEGYREQKAGSTLIRHAEELLRKKGADLLWCNARTSVRGYYEKLGFSEQGGVYDIPPIGPHILMYKKLT

>  <Kcat (s⁻¹)>
0.02

$$$$
>  <MOLECULE>
SEQ ID NO: 333: GAT polypeptide (protein, 15_3F10, GAT polypeptide) MIEVKPINAEDTYEIRHRILRPNQPLEACKYETDLLRGAFHLGGYYRGKLISIVSFHQAEHPELEGQKQYQLRGMATLEGYREQKAGSTLIRHAEELLRKKGADLLWCNARTSASGYYKKLGFSEQGEVYDTPPAGPHILMYTKLT

>  <Kcat (s⁻¹)>
0.812

$$$$
>  <MOLECULE>
SEQ ID NO: 450: GAT polypeptide (protein, 0_6F2, GAT polypeptide) MIEVKPINAEDTYELRHRILRPNQPIEACMYESDLLRGAFHLGGYYRGKLISIASFHQAEHSELQGQKQYQLRGMATLEGFREQKAGSTLIRHAEQILRKRGADMLWCNARTSASGYYKKLGFSEQGEIFDTPPVGPHILMYKRIT

>  <Kcat (s⁻¹)>
2.92

$$$$
>  <MOLECULE>
SEQ ID NO: 491: GAT polypeptide (protein, 3_7F9, GAT polypeptide) MLEVKPINAEDTYELRHRILRPNQPIEACMYESDLLRGAFHLGGYYGGKLISIASFHQAEHSDLQGQKQYQLRGMATLEGYREQKAGSSLIKHAEEILRKRGADLLWCNARTSASGYYKKLGFSEQGEIFETPPVGPHILMYKRIT

>  <Kcat (s⁻¹)>
3.2258

$$$$
>  <MOLECULE>
SEQ ID NO: 406: GAT polypeptide (protein, 6_4B1, GAT polypeptide) MIEVKPINAEDTYEIRHRVLRPNQPLEACMYETDLLGGTFHLGGYYRGKLIGIASFHQAEHPELEGQKQYQLRGMATLEGYREQKAGSTLIRHAEELLRKKGADLLWCNARTSASGYYEKLGFSGQGEVYDIPPIGPHILMYKKLT

>  <Kcat (s⁻¹)>
0.45

$$$$
